Below are IC50 values measured for UniProt P08183.

In: Can you look up the measured IC50 of CC(C)CN(C[C@@H](O)[C@H](Cc1ccccc1)NC(=O)O[C@H]1CO[C@H]2OCC[C@H]21)S(=O)(=O)c1ccc(N)cc1 for me?
Out: 16 µM

In: Can you look up the measured IC50 of CC[C@H]1OC(=O)[C@H](C)[C@@H](O[C@H]2C[C@@](C)(OC)[C@@H](O)[C@H](C)O2)[C@H](C)[C@@H](O[C@@H]2O[C@H](C)C[C@H](N(C)C)[C@H]2O)[C@](C)(O)C[C@@H](C)CN(C)[C@H](C)[C@@H](O)[C@]1(C)O for me?
Out: 18 µM

In: Can you look up the measured IC50 of C[C@@H]1CCN(C(=O)CC#N)C[C@@H]1N(C)c1ncnc2[nH]ccc12 for me?
Out: > 100 µM

In: Can you look up the measured IC50 of O=C1CCC(N2C(=O)c3ccccc3C2=O)C(=O)N1 (stereo not drawn) [Thalidomide] for me?
Out: 65 µM

In: Can you look up the measured IC50 of CCCCc1nc(Cl)c(CO)n1Cc1ccc(-c2ccccc2-c2nn[nH]n2)cc1 for me?
Out: > 100 µM

In: Can you look up the measured IC50 of CCC(CC)COC(=O)[C@H](C)N[P@](=O)(OC[C@H]1O[C@@](C#N)(c2ccc3c(N)ncnn23)[C@H](O)[C@@H]1O)Oc1ccccc1 for me?
Out: 14 µM

* * *

Target: P-gp (Homo sapiens, UniProt P08183)
Sequence (P08183 whole entry): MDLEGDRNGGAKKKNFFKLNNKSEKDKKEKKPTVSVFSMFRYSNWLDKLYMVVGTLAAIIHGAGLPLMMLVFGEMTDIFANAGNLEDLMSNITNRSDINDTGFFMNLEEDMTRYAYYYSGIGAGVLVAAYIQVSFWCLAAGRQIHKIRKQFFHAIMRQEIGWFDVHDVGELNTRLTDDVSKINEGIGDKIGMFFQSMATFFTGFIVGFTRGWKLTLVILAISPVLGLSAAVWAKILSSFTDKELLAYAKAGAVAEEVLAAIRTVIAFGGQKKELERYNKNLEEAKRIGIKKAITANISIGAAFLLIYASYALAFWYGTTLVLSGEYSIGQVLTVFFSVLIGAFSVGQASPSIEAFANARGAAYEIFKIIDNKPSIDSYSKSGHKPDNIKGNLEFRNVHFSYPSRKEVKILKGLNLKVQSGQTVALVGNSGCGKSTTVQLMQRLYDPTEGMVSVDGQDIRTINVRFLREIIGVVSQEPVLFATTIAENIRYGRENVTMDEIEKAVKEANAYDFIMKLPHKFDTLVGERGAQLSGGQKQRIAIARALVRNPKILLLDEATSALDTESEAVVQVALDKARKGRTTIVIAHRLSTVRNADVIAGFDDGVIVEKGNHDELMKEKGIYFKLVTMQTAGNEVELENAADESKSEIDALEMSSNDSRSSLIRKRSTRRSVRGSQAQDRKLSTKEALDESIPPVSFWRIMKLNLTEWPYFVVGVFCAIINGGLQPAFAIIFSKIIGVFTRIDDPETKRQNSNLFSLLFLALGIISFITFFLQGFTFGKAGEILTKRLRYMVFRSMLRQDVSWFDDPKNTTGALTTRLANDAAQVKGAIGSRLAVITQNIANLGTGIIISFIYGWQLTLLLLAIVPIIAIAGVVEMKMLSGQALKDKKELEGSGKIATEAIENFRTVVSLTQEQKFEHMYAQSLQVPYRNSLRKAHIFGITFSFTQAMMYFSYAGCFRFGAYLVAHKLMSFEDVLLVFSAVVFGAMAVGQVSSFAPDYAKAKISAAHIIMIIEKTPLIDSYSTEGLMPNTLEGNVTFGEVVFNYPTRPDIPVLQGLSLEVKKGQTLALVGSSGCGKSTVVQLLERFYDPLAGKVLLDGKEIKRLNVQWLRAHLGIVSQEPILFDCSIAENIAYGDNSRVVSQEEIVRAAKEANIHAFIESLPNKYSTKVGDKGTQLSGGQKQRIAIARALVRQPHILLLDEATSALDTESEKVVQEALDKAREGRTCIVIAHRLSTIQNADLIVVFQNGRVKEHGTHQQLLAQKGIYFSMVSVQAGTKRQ
Rule: IC50 below 40 µM gives fulfilled. Equal to or above 40 µM gives not fulfilled.

In: # TODO verify IC50 < 40 µM strictly for this compound: Cc1oncc1C(=O)Nc1ccc(C(F)(F)F)cc1 [Leflunomide]
Out: not fulfilled

In: # TODO verify IC50 < 40 µM strictly for this compound: NC(=O)c1ncn([C@@H]2O[C@H](CO)[C@@H](O)[C@H]2O)n1
Out: not fulfilled

In: # TODO verify IC50 < 40 µM strictly for this compound: NC(=O)c1nc(F)c[nH]c1=O
Out: not fulfilled

In: # TODO verify IC50 < 40 µM strictly for this compound: CCCCCCCCc1ccc(CCC(N)(CO)CO)cc1
Out: not fulfilled

In: # TODO verify IC50 < 40 µM strictly for this compound: CCS(=O)(=O)N1CC(CC#N)(n2cc(-c3ncnc4[nH]ccc34)cn2)C1
Out: not fulfilled

In: # TODO verify IC50 < 40 µM strictly for this compound: CCN(CCO)CCCC(C)Nc1ccnc2cc(Cl)ccc12 (stereo not shown) [Hydroxychloroquine]
Out: not fulfilled

In: # TODO verify IC50 < 40 µM strictly for this compound: CN(C)C(=O)COC(=O)Cc1ccc(OC(=O)c2ccc(NC(=N)N)cc2)cc1
Out: fulfilled

In: # TODO verify IC50 < 40 µM strictly for this compound: CCOC(=O)C1=C[C@@H](OC(CC)CC)[C@H](NC(C)=O)[C@@H](N)C1
Out: not fulfilled

In: # TODO verify IC50 < 40 µM strictly for this compound: COc1ccc2cc1Oc1ccc(cc1)C[C@H]1c3cc(c(OC)cc3CCN1C)Oc1c(OC)c(OC)cc3c1[C@H](C2)N(C)CC3
Out: fulfilled

In: # TODO verify IC50 < 40 µM strictly for this compound: COc1cc2c(c(OC)c1OC)-c1ccc(OC)c(=O)cc1[C@@H](NC(C)=O)CC2
Out: not fulfilled

In: # TODO verify IC50 < 40 µM strictly for this compound: N#CC[C@H](C1CCCC1)n1cc(-c2ncnc3[nH]ccc23)cn1
Out: not fulfilled

In: # TODO verify IC50 < 40 µM strictly for this compound: CCOC(=O)c1c(CSc2ccccc2)n(C)c2cc(Br)c(O)c(CN(C)C)c12
Out: fulfilled

In: # TODO verify IC50 < 40 µM strictly for this compound: CCCc1nn(C)c2c(=O)[nH]c(-c3cc(S(=O)(=O)N4CCN(C)CC4)ccc3OCC)nc12
Out: fulfilled

* * *

Target: human OAT1 (Homo sapiens, UniProt Q4U2R8)
Sequence (Q4U2R8 whole entry): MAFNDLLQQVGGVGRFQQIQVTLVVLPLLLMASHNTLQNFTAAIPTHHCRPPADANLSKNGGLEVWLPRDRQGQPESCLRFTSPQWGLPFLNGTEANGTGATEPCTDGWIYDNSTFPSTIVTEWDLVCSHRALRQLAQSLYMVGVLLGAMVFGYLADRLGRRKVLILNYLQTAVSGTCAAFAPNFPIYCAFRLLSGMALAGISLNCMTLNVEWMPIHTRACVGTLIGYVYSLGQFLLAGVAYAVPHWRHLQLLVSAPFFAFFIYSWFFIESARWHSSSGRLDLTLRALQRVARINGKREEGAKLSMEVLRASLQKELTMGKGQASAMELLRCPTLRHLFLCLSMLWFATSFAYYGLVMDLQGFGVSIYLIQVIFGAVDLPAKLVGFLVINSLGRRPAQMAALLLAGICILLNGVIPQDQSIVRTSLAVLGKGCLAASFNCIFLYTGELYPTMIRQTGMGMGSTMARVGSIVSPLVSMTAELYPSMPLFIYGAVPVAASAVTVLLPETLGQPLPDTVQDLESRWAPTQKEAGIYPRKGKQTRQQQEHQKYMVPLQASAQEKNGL
Assay: cell-based
Answer each item with its documented IC50.

In: Can you look up the measured IC50 of CN(C)C(=O)COC(=O)Cc1ccc(OC(=O)c2ccc(NC(=N)N)cc2)cc1 for me?
Out: > 100 µM

In: Can you look up the measured IC50 of C[C@@H]1CCN(C(=O)CC#N)C[C@@H]1N(C)c1ncnc2[nH]ccc12 for me?
Out: 89 µM

In: Can you look up the measured IC50 of CC(C)CN(C[C@@H](O)[C@H](Cc1ccccc1)NC(=O)O[C@H]1CO[C@H]2OCC[C@H]21)S(=O)(=O)c1ccc(N)cc1 for me?
Out: 95 µM

In: Can you look up the measured IC50 of NC(=O)c1nc(F)c[nH]c1=O for me?
Out: 52 µM

In: Can you look up the measured IC50 of CCCCCCCCc1ccc(CCC(N)(CO)CO)cc1 for me?
Out: 64 µM

In: Can you look up the measured IC50 of NC(=O)c1ncn([C@@H]2O[C@H](CO)[C@@H](O)[C@H]2O)n1 for me?
Out: 99 µM

In: Can you look up the measured IC50 of COc1cc2nc(N3CCN(C(=O)c4ccco4)CC3)nc(N)c2cc1OC for me?
Out: > 100 µM

In: Can you look up the measured IC50 of Cc1oncc1C(=O)Nc1ccc(C(F)(F)F)cc1 [Leflunomide] for me?
Out: > 100 µM

In: Can you look up the measured IC50 of CCN(CC)CCCC(C)Nc1ccnc2cc(Cl)ccc12 (stereo not shown) for me?
Out: > 100 µM

In: Can you look up the measured IC50 of CCOC(=O)c1c(CSc2ccccc2)n(C)c2cc(Br)c(O)c(CN(C)C)c12 for me?
Out: > 100 µM

In: Can you look up the measured IC50 of CCN(CCO)CCCC(C)Nc1ccnc2cc(Cl)ccc12 (stereo not shown) [Hydroxychloroquine] for me?
Out: > 100 µM

In: Can you look up the measured IC50 of CCCc1nn(C)c2c(=O)[nH]c(-c3cc(S(=O)(=O)N4CCN(C)CC4)ccc3OCC)nc12 for me?
Out: > 100 µM

In: Can you look up the measured IC50 of COc1ccc2cc1Oc1ccc(cc1)C[C@H]1c3cc(c(OC)cc3CCN1C)Oc1c(OC)c(OC)cc3c1[C@H](C2)N(C)CC3 for me?
Out: > 10 µM

* * *

Molecular target: human OAT3 (Homo sapiens, UniProt Q8TCC7)
Sequence (Q8TCC7 1-542): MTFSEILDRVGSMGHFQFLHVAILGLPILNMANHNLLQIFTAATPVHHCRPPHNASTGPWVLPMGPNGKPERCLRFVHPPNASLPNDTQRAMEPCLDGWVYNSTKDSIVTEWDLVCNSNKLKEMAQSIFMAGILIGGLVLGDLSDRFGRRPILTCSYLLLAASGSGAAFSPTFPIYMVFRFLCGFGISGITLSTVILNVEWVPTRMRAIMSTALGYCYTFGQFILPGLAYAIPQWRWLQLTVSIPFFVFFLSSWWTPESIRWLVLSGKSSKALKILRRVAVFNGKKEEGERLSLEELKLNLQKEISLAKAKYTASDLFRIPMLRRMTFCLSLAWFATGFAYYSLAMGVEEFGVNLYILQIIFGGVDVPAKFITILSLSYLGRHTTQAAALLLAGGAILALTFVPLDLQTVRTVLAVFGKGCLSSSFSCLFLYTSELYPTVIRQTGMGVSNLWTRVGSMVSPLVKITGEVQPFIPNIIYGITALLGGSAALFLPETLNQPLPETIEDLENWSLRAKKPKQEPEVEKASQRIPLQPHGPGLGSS
Outcome measure: IC50 (µM)
Give the value in µM but do not write µM after it.

In: Can you look up the measured IC50 of CCOC(=O)c1c(CSc2ccccc2)n(C)c2cc(Br)c(O)c(CN(C)C)c12 [Umifenovir (Arbidol), Umifenovir] for me?
Out: 58.6

In: Can you look up the measured IC50 of NC(=O)c1nc(F)c[nH]c1=O [Favipiravir] for me?
Out: 84.2

In: Can you look up the measured IC50 of CCS(=O)(=O)N1CC(CC#N)(n2cc(-c3ncnc4[nH]ccc34)cn2)C1 [Baricitinib] for me?
Out: 12.7

In: Can you look up the measured IC50 of N#CC[C@H](C1CCCC1)n1cc(-c2ncnc3[nH]ccc23)cn1 [Ruxolitinib] for me?
Out: 6.1

In: Can you look up the measured IC50 of CC(C)CN(C[C@@H](O)[C@H](Cc1ccccc1)NC(=O)O[C@H]1CO[C@H]2OCC[C@H]21)S(=O)(=O)c1ccc(N)cc1 [Darunavir] for me?
Out: 37.9

In: Can you look up the measured IC50 of C[C@@H]1CCN(C(=O)CC#N)C[C@@H]1N(C)c1ncnc2[nH]ccc12 [Tofacitinib] for me?
Out: 51.6

In: Can you look up the measured IC50 of CCC(CC)COC(=O)[C@H](C)N[P@](=O)(OC[C@H]1O[C@@](C#N)(c2ccc3c(N)ncnn23)[C@H](O)[C@@H]1O)Oc1ccccc1 [Remdesivir] for me?
Out: 14

In: Can you look up the measured IC50 of O=C1CCC(N2C(=O)c3ccccc3C2=O)C(=O)N1 (stereo not shown) [Thalidomide] for me?
Out: 54.6

In: Can you look up the measured IC50 of CCCc1nn(C)c2c(=O)[nH]c(-c3cc(S(=O)(=O)N4CCN(C)CC4)ccc3OCC)nc12 [Sildenafil] for me?
Out: 20.5

The values you see were collected from paper PMC8217266.
